Molecular target: T1, Recombinant soluble E protein (0.8E-His) from DENV-1 (DENV-1, UniProt P27909 281-675)
T1 construct: also called DENV-1 E protein; DV1
Answer each item with its documented pKd.
Please note pKd is a logarithmic value: minus log10 of concentration in mol/L. Answer with that number alone.

Exercise: Requested field: pKd. Item: DG_3CH992-SG182/3CL666-SK1 (antibody, V domains shown) VH: QVQLVQSGAEVKKPGASVKVSCKASGYTFTSYYIHWVRQAPGQGLEWMGVINPRGGSRRSAQKFQGRVTMTRDTSTSTVYMELSSLRSEDTAVYYCARGGRALFYDSYTTPFDGGSWWFDPWGQGSLVTVSS VL: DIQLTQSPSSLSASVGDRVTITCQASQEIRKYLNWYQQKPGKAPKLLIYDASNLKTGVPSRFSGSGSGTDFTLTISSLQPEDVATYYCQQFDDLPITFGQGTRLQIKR
Key: 8.86

Exercise: What measured pKd goes with DG_3CH992-SG182/3CL012-SK1 (antibody, V domains shown) VH: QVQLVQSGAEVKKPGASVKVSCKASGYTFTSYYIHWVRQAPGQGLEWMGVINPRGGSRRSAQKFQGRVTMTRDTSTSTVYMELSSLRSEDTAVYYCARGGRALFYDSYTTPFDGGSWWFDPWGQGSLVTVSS VL: DIQLTQSPSSLSASVGDRVTFTCQASQDIRKYLNWYQQKPGKAPKLLIYDASNLKTGVPSRFSGSGSGTDFTFTISSLQPEDVATYYCQQFEDLPITFGQGTRLQIKR ?
Key: 8.76

Exercise: Data request, read-out pKd, for DG_3CH989-SG182/3CL666-SK1 (antibody, V domains shown) VH: QVQLVQSGAEVKKPGASVKVSCKASGYTFTSNYIHWVRQAPGQGLEWMGVINPRGGSRRSAQKFQGRVTMTRDTSTSTVYMELSSLRSEDTAVYYCARGGRALFYDSYTTPFDGGSWWFDPWGQGSLVTVSS VL: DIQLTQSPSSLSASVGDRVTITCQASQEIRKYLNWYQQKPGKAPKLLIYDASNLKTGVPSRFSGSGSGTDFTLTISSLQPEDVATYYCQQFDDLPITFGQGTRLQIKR
Key: 8.82
